Data provenance: PubChem BioAssay AID2060607

System: 876862-298-R-J1-PDC complex spheroids, viability % test/control
assay: Anticancer human tumor 876862-298-R-J1-PDC patient-derived endometrial carcinoma cell line growth inhibition [CLK]
study_conditions: second compound 0.1 µM; first compound 10 µM; active compounds read low
Listing of recorded viability, T/C by entry.

molecule	viability, T/C / %
C=C(F)C(=O)N1CCN(c2nc(OCC3CCCN3C)nc3c2CCN(c2cccc4cccc(Cl)c24)C3)CC1CC#N (stereo unspecified) + CN1CCN(c2cc(C(=O)Nc3cc4cc(-c5cnn(C)c5)ccc4cn3)ccn2)CC1	4.78
Nc1ccn(C2OC(CO)C(O)C2(F)F)c(=O)n1 (stereo unspecified) + CN1CCN(c2cc(C(=O)Nc3cc4cc(-c5cnn(C)c5)ccc4cn3)ccn2)CC1	6.15
C=CC(=O)N1CCN(c2nc(=O)n(-c3c(C)ccnc3C(C)C)c3nc(-c4c(O)cccc4F)c(F)cc23)C(C)C1 (stereo unspecified) + CN1CCN(c2cc(C(=O)Nc3cc4cc(-c5cnn(C)c5)ccc4cn3)ccn2)CC1	30.3
CC(Nc1ccc2c(c1)OCCn1cc(N3C(=O)OCC3C(F)F)nc1-2)C(N)=O (stereo unspecified) + CN1CCN(c2cc(C(=O)Nc3cc4cc(-c5cnn(C)c5)ccc4cn3)ccn2)CC1	15.5
Nc1ccn(C2OC(CO)C(O)C2(F)F)c(=O)n1 (stereo unspecified) + CNC(=O)c1ccc(Nc2nc(OC3CCCC3)c3c(-c4ccc5nc(C)oc5c4)c[nH]c3n2)c(OC)c1	10.1
O=C(c1cc(Cc2n[nH]c(=O)c3ccccc23)ccc1F)N1CCN(C(=O)C2CC2)CC1 + CNC(=O)c1ccc(Nc2nc(OC3CCCC3)c3c(-c4ccc5nc(C)oc5c4)c[nH]c3n2)c(OC)c1	47.3

###

Tested on: 876862-298-R-J1-PDC complex spheroids, viability % test/control
assay: Anticancer human tumor 876862-298-R-J1-PDC cell line growth inhibition [CLK]; active = viability on the fitted dose curve at most 10% of control; inactive = the rest;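 note: spheroids exposed to drugs for 7 days before readout; 100% = DMSO vehicle control wells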
study_conditions: second compound 0.316 µM; first compound 3.16 µM
Description: A high-throughput screen of multi-cell type tumor spheroids was designed to identify active combinations of […] and targeted small molecules. Complex spheroids include a stromal component modeled by human endothelial cells (HUVEC) and fibroblasts modeled by human mesenchymal stem cells (MSCs). […] Compounds. […] If the clinical Cmax for an agent had not been determined, the highest concentration tested was 10 microM. […]
Labels: y = active, n = inactive

molecule	group
COc1ccc([C@@H](O)c2cc(-c3ncnc4cc(N5CCOCC5)ccc34)c(F)cc2Cl)nn1 + CNC(=O)c1ccc(Nc2nc(OC3CCCC3)c3c(-c4ccc5nc(C)oc5c4)c[nH]c3n2)c(OC)c1	n
Nc1ccn(C2OC(CO)C(O)C2(F)F)c(=O)n1 (stereo not given) + CNC(=O)c1ccc(Nc2nc(OC3CCCC3)c3c(-c4ccc5nc(C)oc5c4)c[nH]c3n2)c(OC)c1	y
COc1cccc2c1C(=O)c1c(O)c3c(c(O)c1C2=O)CC(O)(C(=O)CO)CC3OC1CC(N)C(O)C(C)O1 (stereo not given) + CN1CCN(c2cc(C(=O)Nc3cc4cc(-c5cnn(C)c5)ccc4cn3)ccn2)CC1	y
CC(CO)NC(=O)c1cc(-c2ccc(Cl)cc2)nn(-c2cnn(C)c2)c1=O (stereo not given) + CNC(=O)c1ccc(Nc2nc(OC3CCCC3)c3c(-c4ccc5nc(C)oc5c4)c[nH]c3n2)c(OC)c1	n
CCCS(=O)(=O)Nc1ccc(F)c(C(=O)c2c[nH]c3ncc(-c4ccc(Cl)cc4)cc23)c1F + CN1CCN(c2cc(C(=O)Nc3cc4cc(-c5cnn(C)c5)ccc4cn3)ccn2)CC1	y
